# Tested on: Escherichia coli (ATCC 25922)
# measurementDescription: Antimicrobial activity, minimum bactericidal/biocidal concentration
# Type: cell-based
# cond: E. coli 25922, pH 4 (Sal), 1 h
reportedMetric: Minimum Biocidal Concentration (MBC) (≧99.9% kill) (µg/mL)
State the answer as a number, implicitly in µg/mL.

Some entries whose results are on file:
# compound, studyTarget, observedMeasurement
data = [
    ("CC(C)(CS(=O)(=O)CCS(=O)(=O)O)N(Cl)Cl [Compound 630]", "Escherichia coli (ATCC 25922)", 4),
    ("CC(C)(CC(=O)OCCS(=O)(=O)O)N(Cl)Cl [Compound 628]", "Escherichia coli (ATCC 25922)", 2),
    ("CC(=O)N1CCC(CS(=O)(=O)O)(N(Cl)Cl)CC1 [Compound 637]", "Escherichia coli (ATCC 25922)", 16),
    ("CNS(=O)(=O)CC(C)(C)N(Cl)Cl [Compound 626]", "Escherichia coli (ATCC 25922)", 4),
    ("CC(C)(CS(=O)(=O)O)C(=O)OCC(C)(C)N(Cl)Cl [Compound 625]", "Escherichia coli (ATCC 25922)", 4),
]

Which Minimum Biocidal Concentration (MBC) (≧99.9% kill) is reported for this compound? CC(=O)NS(=O)(=O)CC(C)(C)N(Cl)Cl [Compound 627] 2

Value source: patent US8415497B2
